These data points were gathered from patent US20060089378A1.

# Assayed Target: Cannabinoid CB1 Receptor (Homo sapiens)
# Construct: expressed in transfected cells
# Experiment Notes: Binding assay for CB1 agonists or inverse agonists (radioligand competition, membranes of transfected SK-N-MC cells)
In this section, each of the compounds is paired with its reported pIC50.
Would you please state pIC50, meaning minus log10 of the concentration in mol/L, as a bare number?

Solved cases below.
compound=COc1ccc(/C=C2\CN(S(C)(=O)=O)Cc3c(C(=O)NN4CCCCC4)nn(-c4ccc(Cl)cc4Cl)c32)cc1 assayed_target="Cannabinoid CB1 Receptor (Homo sapiens)" test_result=7.52
compound="CCC(=O)N1CCc2c(c(C(=O)NC3C4(C)CCC(C4)C3(C)C)nn2C2CCCCC2)C1 (stereo not drawn)" assayed_target="Cannabinoid CB1 Receptor (Homo sapiens)" test_result=6.22

# input for lookup
QUERY: Param readout= pIC50; system= Cannabinoid CB1 Receptor (Homo sapiens); entry= COC(=O)N1C/C(=C\c2ccc(OC)cc2)c2c(c(C(=O)NN3CCCCC3)nn2-c2ccc(Cl)cc2Cl)C1 ; returns value.
RESULT: 8.30

---

# Assayed Target: Cannabinoid CB1 Receptor (Homo sapiens, UniProt P21554)
# Construct: expressed in transfected cells
# Sequence (P21554 whole entry): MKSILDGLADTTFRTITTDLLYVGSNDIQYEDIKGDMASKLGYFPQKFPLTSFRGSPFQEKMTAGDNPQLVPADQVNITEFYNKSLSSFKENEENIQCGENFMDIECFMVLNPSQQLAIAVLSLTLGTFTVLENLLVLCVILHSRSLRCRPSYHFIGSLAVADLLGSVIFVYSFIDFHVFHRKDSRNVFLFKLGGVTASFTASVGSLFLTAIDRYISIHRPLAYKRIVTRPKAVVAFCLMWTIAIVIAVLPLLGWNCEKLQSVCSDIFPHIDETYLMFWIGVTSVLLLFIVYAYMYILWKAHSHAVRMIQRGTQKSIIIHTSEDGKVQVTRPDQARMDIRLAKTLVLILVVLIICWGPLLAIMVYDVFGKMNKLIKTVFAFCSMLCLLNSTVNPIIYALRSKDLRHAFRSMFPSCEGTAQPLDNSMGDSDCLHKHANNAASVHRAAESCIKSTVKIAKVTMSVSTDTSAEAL
# Experiment Notes: Binding assay for CB1 agonists or inverse agonists (radioligand competition, membranes of transfected SK-N-MC cells)
# Protocol Conditions: test concentration of 0.2 μM; compounds without an IC50 binding value; read-out: Cannabinoid CB1 Receptor Binding percent inhibition
Assay Readout: inhibition at 0.2 µM (%)
Respond with the bare value in %.

Solved cases below.
compound="COc1ccc(/C=C2\\CN(CC(=O)O)Cc3c(C(=O)N[C@H](C)c4ccccc4)nn(-c4ccc(Cl)cc4Cl)c32)cc1 [Cpd 51]" assay_readout="inhibition at 0.2 µM" unit_annotation=% test_result=49
compound="CC(C)(C)OC(=O)N1C/C(=C\\c2ccc(F)cc2)c2c(c(C(=O)N3CCCCC3)nn2-c2ccc(Cl)cc2Cl)C1 [Cpd 135]" assay_readout="inhibition at 0.2 µM" unit_annotation=% test_result=40
compound="CC(=O)N1C/C(=C\\c2ccc(F)cc2)c2c(c(C(=O)N(C(C)=O)N3CC4CCCC4C3)nn2-c2ccc(Cl)cc2)C1 (stereo not shown) [Cpd 136]" assay_readout="inhibition at 0.2 µM" unit_annotation=% test_result=39
compound="CC(C)(C)OC(=O)N1C/C(=C\\c2ccc(F)cc2)c2c(c(C(=O)NN3CCCCC3)nn2-c2ccc(Cl)cc2)C1 [Cpd 74]" assay_readout="inhibition at 0.2 µM" unit_annotation=% test_result=39
compound="COc1ccc(/C=C2\\CNCc3c(C(=O)NN4CCC(O)CC4)nn(-c4ccc(Cl)cc4Cl)c32)cc1 [Cpd 142]" assay_readout="inhibition at 0.2 µM" unit_annotation=% test_result=10
compound="CC(=O)N1C/C(=C\\c2ccc(F)cc2)c2c(c(C(=O)NN3CC4CCCC4C3)nn2-c2ccc(Cl)cc2)C1 (stereo not shown) [Cpd 86]" assay_readout="inhibition at 0.2 µM" unit_annotation=% test_result=46

QUERY: Param item = COC(=O)N1C/C(=C\c2ccc(OC)cc2)c2c(c(C(=O)NN3CCC(O)CC3)nn2-c2ccc(Cl)cc2Cl)C1 [Cpd 144] ; retrieve measured inhibition at 0.2 µM.
RESULT: 42

QUERY: Then what about the compound CC(=O)N1CCc2c(c(C(=O)NC3C4(C)CCC(C4)C3(C)C)nn2-c2ccccc2)C1 (stereo not shown) [Cpd 112] ?
RESULT: 44

---

In this section, each of the compounds is paired with its reported pIC50.
# Assayed Target: Cannabinoid CB1 Receptor (Homo sapiens)
# Construct: expressed in transfected cells
# Experiment Notes: Binding assay for CB1 agonists or inverse agonists (radioligand competition, membranes of transfected SK-N-MC cells)
Would you please state pIC50, meaning minus log10 of the concentration in mol/L, as a bare number?

compound="COc1ccc(/C=C2\\CN(C(=O)OC(C)(C)C)Cc3c(C(=O)NC(C)c4ccccn4)nn(-c4ccc(Cl)cc4Cl)c32)cc1 (stereo not shown)" assay_readout=pIC50 test_result=7.40

QUERY: Param readout= pIC50; system= Cannabinoid CB1 Receptor (Homo sapiens); entry= COC(=O)N1C/C(=C\c2ccc(OC)cc2)c2c(c(C(=O)NC(C)c3ccccn3)nn2-c2ccc(Cl)cc2Cl)C1 (stereo not shown) ; returns value.
RESULT: 8.30

QUERY: Then what about the compound CC(NC(=O)c1nn(-c2ccc(Cl)cc2Cl)c2c1CN(C)C/C2=C\c1ccc(F)cc1)c1ccccn1 (stereo not shown) ?
RESULT: 7.22

QUERY: Then what about the compound CC12CCC(C1)C(C)(C)[C@H]2NC(=O)c1nn(Cc2ccccc2)c2c1CNCC2 (stereo partly shown) ?
RESULT: 6.70

---

# Assayed Target: Cannabinoid CB1 Receptor (Homo sapiens, UniProt P21554)
# Construct: expressed in transfected cells
# Experiment Notes: Binding assay for CB1 agonists or inverse agonists (radioligand competition, membranes of transfected SK-N-MC cells)
Assay Readout: IC50 (nM)
Respond with the bare value in nM.

Solved cases below.
compound="Cc1ccc(S(=O)(=O)N2C/C(=C\\c3ccc(F)cc3)c3c(c(C(=O)N[C@H](C)C4CCCCC4)nn3-c3ccc(Cl)cc3Cl)C2)cc1 [Cpd 31]" unit_annotation=nM test_result=30
compound="COC(=O)N1C/C(=C\\c2ccc(F)cc2)c2c(c(C(=O)NN3CCCCC3)nn2-c2ccc(Cl)cc2Cl)C1 [Cpd 11]" unit_annotation=nM test_result=50
compound="CCCCn1nc(C(=O)NC2C3(C)CCC(C3)C2(C)C)c2c1CCN(C(=O)OC)C2 (centres unmarked) [Cpd 116]" unit_annotation=nM test_result=100
compound="CCNC(=O)N1C/C(=C\\c2ccc(F)cc2)c2c(c(C(=O)NC(C)c3ccccn3)nn2-c2ccc(Cl)cc2)C1 (centres unmarked) [Cpd 77]" unit_annotation=nM test_result=80
compound="COC(=O)N1C/C(=C\\c2ccc(OC)cc2)c2c(c(C(=O)N[C@H](C)c3ccccc3)nn2-c2ccc(Cl)cc2Cl)C1 [Cpd 44]" unit_annotation=nM test_result=2
compound="CCNC(=O)N1C/C(=C\\c2ccc(F)cc2)c2c(c(C(=O)N[C@H](C)c3ccccc3)nn2-c2ccc(Cl)cc2)C1 [Cpd 69]" unit_annotation=nM test_result=30
compound="CC(=O)N1C/C(=C\\c2ccc(F)cc2)c2c(c(C(=O)N[C@@H](C)C3CCCCC3)nn2-c2ccc(Cl)cc2Cl)C1 [Cpd 6]" unit_annotation=nM test_result=100

QUERY: Param item = CCOC(=O)CN1C/C(=C\c2ccc(F)cc2)c2c(c(C(=O)N[C@H](C)c3ccccc3)nn2-c2ccc(Cl)cc2Cl)C1 [Cpd 43] ; retrieve measured IC50.
RESULT: 2

---

# Assayed Target: UniProt P21554
# Experiment Notes: cell-based
In this section, each of the compounds is paired with its reported EC50.
Respond with the bare value in nM.

compound=CCNC(=O)N1C/C(=C\c2ccc(F)cc2)c2c(c(C(=O)NN3CCCCC3)nn2-c2ccc(Cl)cc2Cl)C1 assay_readout=EC50 test_result=9
compound="CCOC(=O)CN1C/C(=C\\c2ccc(OC)cc2)c2c(c(C(=O)NC(C)c3ccccn3)nn2-c2ccc(Cl)cc2Cl)C1 (stereo not drawn)" assay_readout=EC50 test_result=9
compound=CCNC(=O)N1C/C(=C\c2ccc(OC)cc2)c2c(c(C(=O)NN3CCCCC3)nn2-c2ccc(Cl)cc2Cl)C1 assay_readout=EC50 test_result=7
compound="COc1ccc(/C=C2\\CN(C(=O)OC(C)(C)C)Cc3c(C(=O)NC(C)c4ccccn4)nn(-c4ccc(Cl)cc4Cl)c32)cc1 (stereo not drawn)" assay_readout=EC50 test_result=6
compound=C[C@@H](NC(=O)c1nn(-c2ccc(Cl)cc2Cl)c2c1CNC/C2=C\c1ccc(F)cc1)C1CCCCC1 assay_readout=EC50 test_result=8

QUERY: Param item = COc1ccc(/C=C2\CNCc3c(C(=O)N[C@H](C)c4ccccn4)nn(-c4ccc(Cl)cc4Cl)c32)cc1 ; retrieve measured EC50.
RESULT: 8

QUERY: Then what about the compound CC(NC(=O)c1nn(-c2ccc(Cl)cc2Cl)c2c1CN(C)C/C2=C\c1ccc(F)cc1)c1ccccn1 (stereo not drawn) ?
RESULT: 6

QUERY: Then what about the compound CC(=O)N1C/C(=C\c2ccc(F)cc2)c2c(c(C(=O)NC(C)c3ccccn3)nn2-c2ccc(Cl)cc2)C1 (stereo not drawn) ?
RESULT: 9

QUERY: Then what about the compound C[C@@H](NC(=O)c1nn(-c2ccc(Cl)cc2Cl)c2c1CN(C(=O)OC(C)(C)C)C/C2=C\c1ccc(F)cc1)c1ccccc1 ?
RESULT: 10

---

# Assayed Target: Cannabinoid CB1 Receptor (Homo sapiens)
# Construct: expressed in transfected cells
# Experiment Notes: Binding assay for CB1 agonists or inverse agonists (radioligand competition, membranes of transfected SK-N-MC cells)
# Protocol Conditions: test concentration of 0.2 μM; compounds without an IC50 binding value; read-out: Cannabinoid CB1 Receptor Binding percent inhibition
The threshold is inclusive: inhibition at 0.2 µM of exactly 40% counts as Fulfilled; values below receive Not fulfilled.

compound="COc1ccc(/C=C2\\CN(C(=O)OC(C)(C)C)Cc3c(C(=O)N4CCCCC4)nn(-c4ccc(Cl)cc4Cl)c32)cc1 [Cpd 137]" assigned_category="Not fulfilled"

QUERY: # check: inhibition at 0.2 µM of C[C@@H](NC(=O)c1nn(-c2ccc(Cl)cc2Cl)c2c1CN(CC(=O)O)C/C2=C\c1ccc(F)cc1)c1ccccc1 [Cpd 52] is greater than or equal to 40%
RESULT: Not fulfilled

QUERY: Then what about the compound CCNC(=O)N1C/C(=C\c2ccc(F)cc2)c2c(c(C(=O)NN3CCCCC3)nn2-c2ccc(Cl)cc2)C1 [Cpd 83] ?
RESULT: Not fulfilled

QUERY: Then what about the compound CC(C)(C)OC(=O)N1C/C(=C\c2ccc(F)cc2)c2c(c(C(=O)NN3CCC(O)CC3)nn2-c2ccc(Cl)cc2Cl)C1 [Cpd 143] ?
RESULT: Not fulfilled
